System: CCRF-CEM leukemia
Test: NCI tumour cell line growth inhibition, 48 h
Known TGI of a selection of compounds

Solved cases (8 shown):
1. CC(=O)Nc1ccc(-c2nc3cc(Cl)ccc3o2)cc1 : > 50 µM
2. Cc1cc(OCc2nnc3n2N=C(c2cc(F)c(Cl)cc2Cl)/C(=C/c2ccc(Cl)cc2)S3)ccc1Cl : > 100 µM
3. C[C@H]1NC(=O)C2CCCCN2C(=O)CN(C)C(=O)CNC(=O)C2CCCCN2C(=O)[C@@H](NC(=O)c2nc3ccccc3cc2O)[C@@H](C)NC(=O)C2CCCCN2C(=O)CN(C)C(=O)CNC(=O)[C@@H]2CCCCN2C(=O)C1NC(=O)c1nc2ccccc2cc1O (stereo not given in full) : 5.16 µM
4. CC(C)(C)C(=O)OC(N)/C=C/c1ccccc1 (stereo not given) : > 100 µM
5. O=C(CC(=O)c1ccccc1)CC(O)(c1ccccc1)c1ccccc1 : 26 µM
6. CCOC(=O)c1ccc(NC(=O)O/N=C(/Cl)CCl)cc1 : > 100 µM
7. O=C(O)CSc1n[nH]c(-c2ccccc2)n1 : > 100 µM
8. Cc1ccsc1/C=N/Nc1ccc2ccccc2n1 : > 100 µM

Specify measured TGI for `O=C(/C=C/C=C/c1ccccc1)c1ccc2c(c1)CCCC2` .
> 100 µM

Specify measured TGI for `COC(=O)CN(C)P(=O)(N1CC1)N1CC1` .
> 100 µM

* * *

Known TGI of a selection of molecules
Tested on: XF 498 CNS
Experiment: NCI tumour cell line growth inhibition, 48 h

Solved cases (3 shown):
1) CCOC(=O)C(C)(C)Oc1ccc2c(C)c(-c3ccc(Cl)cc3)c(=O)oc2c1 : 83.9 µM
2) Cc1ccc(Cn2c(C)nc3c2C(=O)c2ccccc2C3=O)cc1 : 47.6 µM
3) CN(C)c1c([O-])c(=[N+](C)C)c1=O : > 100 µM

Specify measured TGI for `CCCCCCC[CH2][Sn]1([CH2]CCCCCCC)[O]C(=O)c2cccnc2[S]1` .
> 100 µM

Specify measured TGI for O=C1CC(C[C@H](O)C2CCCCC2O)CC(=O)N1Cc1ccccc1 (stereo partly specified) .
> 100 µM

Specify measured TGI for `O=C(O)CSc1n[nH]c(-c2ccccc2)n1` .
> 100 µM

* * *

Known TGI of a selection of compounds
Test system: U251 CNS
Experiment: NCI tumour cell line growth inhibition, 48 h

1. COc1ccc(-c2c(C#N)c(O)n(NS(=O)(=O)c3ccc(C)cc3)c(=O)c2C#N)cc1 : > 100 µM
2. COC(=O)CN(C)P(=O)(N1CC1)N1CC1 : > 100 µM
3. Oc1cc(O)c2c(c1)OC(c1ccc(O)c(O)c1)C(OC1(c3cc(O)c(O)c(O)c3)Oc3cc(O)cc(O)c3C(O)C1O)C2 (stereo unspecified) : 46.2 µM
4. CC(=O)O[C@H]1CCC2[C@@H]3CCC4=C(O)c5nocc5C[C@]4(C)C3CC[C@@]21C (stereo partly specified) : > 100 µM
5. CCOP(=O)(O)C(C)(C)NC : > 100 µM
6. Cn1c(N)c2c3c(sc2nc1=O)CCCC3 : > 75 µM

Specify measured TGI for `O=c1c2ccccc2sc2cccc(NCCCN3CCN(CCCNc4cccc5sc6ccccc6c(=O)c45)CC3)c12` .
> 100 µM

Specify measured TGI for `O=c1cc(-c2ccccc2)[nH]c2c(S)cccc12` .
> 100 µM

Specify measured TGI for `O=C(c1cc(Cl)cc(Cl)c1)N1CCN(C(=O)c2cc(Cl)cc(Cl)c2)C1=S` .
26.4 µM

* * *

Test system: UACC-257 melanoma
Assay: NCI tumour cell line growth inhibition, 48 h
Classification by TGI follows these ranges: low range: < 5 µM; mid range: ≥ 5 µM and < 50 µM; high range: ≥ 50 µM

1. CCOC(=O)NC(=O)c1cn(CCOC(=O)NCCCCCCNC(=O)OCCn2cc(C(=O)NC(=O)OCC)c(=O)[nH]c2=O)c(=O)[nH]c1=O : high range

For the record CCOC(=O)C1=C(N)Oc2ccc(Br)cc2C1C(C#N)C(=O)OCC (stereo not given) , report the class its TGI corresponds to.
high range

For the record CC[C@]1(Cc2ccc(OC)c(OC)c2)[C@@H]2C[C@@H](C3OCCO3)ON2O[C@H](OC2CCCC2(c2ccccc2)c2ccccc2)[C@@H]1OC(C)=O (stereo not given in full) , report the class its TGI corresponds to.
mid range

* * *

Tested on: DMS 114 small cell lung
Test: NCI tumour cell line growth inhibition, 48 h
result-type: TGI

1. CCCCCCC[CH2][Sn]1([CH2]CCCCCCC)[O]C(=O)c2cccnc2[S]1 : > 100 µM
2. CCOC(=O)NC(=O)c1cn(CCOC(=O)NCCCCCCNC(=O)OCCn2cc(C(=O)NC(=O)OCC)c(=O)[nH]c2=O)c(=O)[nH]c1=O : > 100 µM

Specify measured TGI for `COc1cccc(/C=N/[N-]C(=O)c2ccncc2)c1[O-].[Cu+2].[OH3+]` .
> 100 µM

* * *

Test system: NCI-H23 lung
Assay: NCI tumour cell line growth inhibition, 48 h
result-type: TGI

Solved cases (3 shown):
1) CCc1nc2ccc(N=NN(C)C)cc2[nH]1 : > 100 µM
2) CCCn1c(N)c(C(=O)N/N=C(/C)c2cc3cccc(OC)c3o2)sc1=S : > 100 µM
3) CN1CCN(CN2C(=O)C3C4C=CC(C3C2=O)C2C(=O)N(CN3CCN(C)CC3)C(=O)C42)CC1 (stereo not drawn) : > 78.4 µM

Specify measured TGI for `COc1ccc(/C=N/n2c(-c3ccccc3)n[nH]c2=O)cc1` .
> 100 µM

Specify measured TGI for COC(=O)C1C=CN(N(C)C)C2=C1C(=O)c1c(O)cccc1C2=O (stereo not drawn) .
4.11 µM

Specify measured TGI for `CCOC(=O)C(=Cc1cccc(Cl)c1)C(=O)OCC` .
6.45 µM

Specify measured TGI for C[C@H]1NC(=O)C2CCCCN2C(=O)CN(C)C(=O)CNC(=O)C2CCCCN2C(=O)[C@@H](NC(=O)c2nc3ccccc3cc2O)[C@@H](C)NC(=O)C2CCCCN2C(=O)CN(C)C(=O)CNC(=O)[C@@H]2CCCCN2C(=O)C1NC(=O)c1nc2ccccc2cc1O (stereo partly drawn) .
0.69 µM

Specify measured TGI for `O=C(O)CCN(CCC(=O)O)c1ccc(/C=C2\SC(=S)NC2=O)cc1` .
> 100 µM

Specify measured TGI for COc1ccc(C(OCC2OC(n3cc(C)c(=O)[nH]c3=O)CC2n2cc(Cn3cc(Br)c(=O)[nH]c3=O)nn2)(c2ccccc2)c2ccccc2)cc1 (stereo not drawn) .
> 100 µM

Specify measured TGI for `CCCCCCNC(=O)c1nc(-c2ccccc2)oc1Cc1ccc(OP(=O)(O)O)cc1` .
35.4 µM

Specify measured TGI for `O=C(NS(=O)(=O)OCC(Cl)(Cl)Cl)SCCC(F)(F)C(F)(F)C(F)(F)C(F)(F)C(F)(F)C(F)(F)F` .
40.6 µM

Specify measured TGI for Cc1c(CNc2ccc(C(=O)NC(CC(=O)O)C(=O)O)cc2)ccc2nc(N)nc(N)c12 (stereo not drawn) .
> 1000 µM

Specify measured TGI for `CCc1cccc(C)c1NC(=O)C(=O)Cc1nc2ccccc2o1` .
> 100 µM

* * *

Tested on: LOX IMVI melanoma
Experiment: NCI tumour cell line growth inhibition, 48 h
result-type: TGI

Solved cases (8 shown):
1. CCOC(=O)c1ccc(C(=O)/C(C#N)=C2\CCCN2C)[nH]1 : > 100 µM
2. Ic1ccc(-n2nnnc2-c2cnoc2-c2ccccc2)cc1 : > 100 µM
3. O=P(O)(Cc1ccccc1)c1ccccc1-c1ccccc1 : > 100 µM
4. C=CCc1cccc(/C=N/NC(=O)CN2CCN(Cc3ccccc3)CC2)c1O : 6.59 µM
5. CN1C(=O)C(CC=O)(C(C)(C)C)c2ccccc21 (stereo not given) : > 100 µM
6. COc1ccc(OC)c(N2C(=O)CSC2c2cc(OC)c(OC)c(OC)c2)c1 (stereo not given) : > 100 µM
7. Cc1nc2ccccc2nc1-c1ccc(N=[N+]([O-])c2ccc(-c3nc4ccccc4nc3C)cc2)cc1 : > 100 µM
8. CC(C)=CCc1c(O)ccc2ccc(=O)oc12 : > 100 µM

Specify measured TGI for `CCCCCCNC(=O)c1nc(-c2ccccc2)oc1Cc1ccc(OP(=O)(O)O)cc1` .
30.2 µM

Specify measured TGI for Cc1cccc(C(C)C)c1NC(=O)CC1Sc2ccccc2NC1=O (stereo not given) .
> 100 µM

* * *

Tested on: SNB-75 CNS
Experiment: NCI tumour cell line growth inhibition, 48 h
Known TGI of a selection of compounds

Solved cases (10 shown):
1) COc1ccc(CCN=C2OCc3ccccc32)cc1OC : > 100 µM
2) COc1ccc(-c2oc(=O)ccc2-c2cc(OC)c(OC)c(OC)c2)cc1F : 36.4 µM
3) CCOC(=O)C1=C(N)Oc2ccc(Br)cc2C1C(C#N)C(=O)OCC (stereo unspecified) : > 100 µM
4) CCOC(=O)C1(c2ccccc2)CCC(=O)CC1 : > 100 µM
5) CCOC(=O)c1cc(C2(O)CCN(CC(C)CC)C2=O)c(-c2cc(C)no2)[nH]1 (stereo unspecified) : > 100 µM
6) CC(C)=CCc1c(O)ccc2ccc(=O)oc12 : > 100 µM
7) O=[N+]([O-])c1ccc(S(=O)(=O)N=Ic2ccccc2)cc1 : > 100 µM
8) N#C/C(N)=C(\C#N)NC=NCc1ccccc1 : > 100 µM
9) Cc1ccc(-c2c3c(n(C4OC(CO)C(O)C(O)C4O)c(=S)c2C#N)CC(C)(C)CC3=O)cc1 (stereo unspecified) : > 100 µM
10) Cc1ccc(NC(=S)NNC(=O)c2cc(-c3ccccc3)nc3ccccc23)cc1 : 42.3 µM

Here is another compound to look at.
Write down the reported TGI (system: SNB-75 CNS) of COc1cc(C2SCC(=O)N2c2ccc(Cl)c(Cl)c2)cc(OC)c1OC (stereo unspecified)
> 100 µM
